- MEASUREMENT TARGET: T1, SARS-CoV2 Spike ecto foldon Trimer expressed with a C-terminal myc-myc-hexahistidine (SARS-CoV-2, UniProt P0DTC2 14-1213)
- T1 construct: extracellular domain
- MEASUREMENT NOTES: SPR Biacore, mAb captured by anti-hFc, 37C
QUANTITY MEASURED: t½ (h)
Give the quantity in h, number only.

// known answers, use as guide
- mAb15157 (antibody, V domains shown) VH: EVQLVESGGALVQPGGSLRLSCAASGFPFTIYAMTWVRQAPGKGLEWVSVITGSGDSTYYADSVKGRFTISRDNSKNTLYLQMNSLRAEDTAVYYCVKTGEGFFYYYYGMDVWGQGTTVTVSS VL: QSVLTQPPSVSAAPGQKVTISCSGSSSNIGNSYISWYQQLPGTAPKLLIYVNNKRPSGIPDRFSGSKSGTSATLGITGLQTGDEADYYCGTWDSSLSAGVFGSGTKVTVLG: 0.803
- mAb14286 (antibody, V domains shown) VH: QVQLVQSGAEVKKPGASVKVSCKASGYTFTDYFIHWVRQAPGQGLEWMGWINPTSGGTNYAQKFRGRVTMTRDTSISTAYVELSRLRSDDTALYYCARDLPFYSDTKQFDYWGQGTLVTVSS VL: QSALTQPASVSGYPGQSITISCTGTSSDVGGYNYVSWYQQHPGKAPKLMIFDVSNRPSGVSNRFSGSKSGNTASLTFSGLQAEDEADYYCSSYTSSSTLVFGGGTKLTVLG: 1.37

Shifting focus to the binder that follows.
Determine from records and report t½ for mAb15166 (antibody, V domains shown) VH: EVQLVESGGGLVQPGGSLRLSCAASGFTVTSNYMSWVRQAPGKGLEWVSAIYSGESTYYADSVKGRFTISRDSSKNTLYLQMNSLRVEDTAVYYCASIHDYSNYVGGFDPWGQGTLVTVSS VL: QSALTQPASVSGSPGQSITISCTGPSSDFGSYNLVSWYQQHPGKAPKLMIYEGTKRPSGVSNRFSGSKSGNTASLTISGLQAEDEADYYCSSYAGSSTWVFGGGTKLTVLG
2.31
